- Target of assay: T1, monkey Fc-PD-1 protein (monkey, UniProt Q15116 25-170 (human entry))
- T1 construct: not shown: Fc part not described
- T1 chain: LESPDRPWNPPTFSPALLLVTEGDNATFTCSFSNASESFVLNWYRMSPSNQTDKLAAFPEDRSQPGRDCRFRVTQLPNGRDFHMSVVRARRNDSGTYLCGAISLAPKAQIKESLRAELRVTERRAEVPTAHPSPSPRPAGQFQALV
- Assay text: Biacore, Fab, monkey Fc-PD-1
Parameter measured: Kd (nM)
Just the number please, in nM, no unit attached.

Solved entries (count: 3):
input: Record request: Kd value, item A35799 (Fab, V domains shown, humanized Fab clone of 137F2; also called humanized antibody A35799) VH: QMQLVQSGAEVKKTGSSVKVSCKASGYTFTNYWIGWVRQMPGKGLEWMGDIYPGGGYTNYNEKFKGRVTITADKSTSTAYMELSSLRSEDTAVYYCARGYDFVLDRWGQGTTVTVSS VL: DVVMTQSPAFLSVTPGEKVTITCKSSQSLFNSETQKNYLAWYQQKPGQPPKLLIYWASTRESGVPSRFSGSGSGTDFTLTISSLQPEDFATYYCKQSYTLRTFGGGTKLEIK
output: 1.88

input: Record request: Kd value, item A35796 (Fab, V domains shown, humanized Fab clone of 137F2; also called humanized antibody A35796) VH: QMQLVQSGPEVKKPGTSVKVSCKASGFTFTNYWIGWVRQAPGQALEWMGDIYPGGGYTNYNEKFKGRVTITADKSTSTAYMELSSLRSEDTAVYYCARGYDFVLDRWGQGTTVTVSS VL: DVVMTQSPAFLSVTPGEKVTITCKSSQSLFNSETQKNYLAWYQQKPGQPPKLLIYWASTRESGVPSRFSGSGSGTDFTLTISSLQPEDFATYYCKQSYTLRTFGGGTKLEIK
output: 1.03

input: Record request: Kd value, item A35795 (Fab, V domains shown, humanized Fab clone of 137F2; also called humanized antibody A35795) VH: QVQLVQSGAEVKKPGASVKVSCKASGYTFTNYWIGWVRQAPGQGLEWMGDIYPGGGYTNYNEKFKGRVTITADKSTSTAYMELSSLRSEDTAVYYCARGYDFVLDRWGQGTTVTVSS VL: DVVMTQSPAFLSVTPGEKVTITCKSSQSLFNSETQKNYLAWYQQKPGQAPRLLIYWASTRESGVPSRFSGSGSGTDFTLTISSLQPEDFATYYCKQSYTLRTFGGGTKLEIK
output: 1.64

More entries:
input: Record request: Kd value, item A35805 (Fab, V domains shown, humanized Fab clone of 137F2; also called humanized antibody A35805) VH: QVQLVQSGSELKKPGASVKVSCKASGYTFTNYWIGWVRQAPGKGLEWMGDIYPGGGYTNYNEKFKGRVTITADKSTSTAYMELSSLRSEDTAVYYCARGYDFVLDRWGQGTTVTVSS VL: DVVMTQSPAFLSVTPGEKVTITCKSSQSLFNSETQKNYLAWYQQKPGQPPKLLIYWASTRESGVPSRFSGSGSGTDFTFTISSLEAEDAATYYCKQSYTLRTFGGGTKLEIK
output: 1.08
